Data credit: ChEMBL document CHEMBL5357044

target: NACHT, LRR and PYD domains-containing protein 3 (Mus musculus); test: Inhibition of NLRP3 inflammasome activation in mouse J774.A1 cells assessed as reduction in LPS-stimulated IL-1beta level pretreated for 1 hr followed by nigericin treatment for 1 hr by ELISA
IC50: recorded values
Return type: number; implicit unit µM.

### Prompt Return value of IC50 for input Cc1cc(/C=C/C(=O)c2ccc3c(c2)COC32CNC2)cc(C)c1O , no commentary.
### Response 5.21

### Prompt Let me know recorded IC50 for COC(=O)C1(C(=O)Nc2ccc(C(=O)/C=C/c3cc(C)c(O)c(C)c3)cc2)CC1 , thanks.
### Response 3.01

### Prompt Kindly indicate its recorded IC50. Item: Cc1cc(/C=C/C(=O)c2ccc(C(=O)NCC(=O)N(C)C)cc2)cc(C)c1O
### Response 5.97

### Prompt Please indicate IC50 recorded for CCN(CC)C(=O)CNC(=O)c1ccc(C(=O)/C=C/c2cc(C)c(O)c(C)c2)cc1
### Response 5.95

### Prompt Given Cc1cc(/C=C/C(=O)c2ccc(NC(=O)CCN(C)C)cc2)cc(C)c1O , respond with its IC50.
### Response 5.97

----------
Let's look at some compounds and their measured pIC50.
target: NACHT, LRR and PYD domains-containing protein 3 (Mus musculus, UniProt Q8R4B8); assay: Inhibition of NLRP3 inflammasome activation in mouse J774.A1 cells assessed as reduction in LPS-stimulated IL-1beta level pretreated for 1 hr followed by nigericin treatment for 1 hr by ELISA
Sequence (Q8R4B8 whole entry, the tested form may be a part): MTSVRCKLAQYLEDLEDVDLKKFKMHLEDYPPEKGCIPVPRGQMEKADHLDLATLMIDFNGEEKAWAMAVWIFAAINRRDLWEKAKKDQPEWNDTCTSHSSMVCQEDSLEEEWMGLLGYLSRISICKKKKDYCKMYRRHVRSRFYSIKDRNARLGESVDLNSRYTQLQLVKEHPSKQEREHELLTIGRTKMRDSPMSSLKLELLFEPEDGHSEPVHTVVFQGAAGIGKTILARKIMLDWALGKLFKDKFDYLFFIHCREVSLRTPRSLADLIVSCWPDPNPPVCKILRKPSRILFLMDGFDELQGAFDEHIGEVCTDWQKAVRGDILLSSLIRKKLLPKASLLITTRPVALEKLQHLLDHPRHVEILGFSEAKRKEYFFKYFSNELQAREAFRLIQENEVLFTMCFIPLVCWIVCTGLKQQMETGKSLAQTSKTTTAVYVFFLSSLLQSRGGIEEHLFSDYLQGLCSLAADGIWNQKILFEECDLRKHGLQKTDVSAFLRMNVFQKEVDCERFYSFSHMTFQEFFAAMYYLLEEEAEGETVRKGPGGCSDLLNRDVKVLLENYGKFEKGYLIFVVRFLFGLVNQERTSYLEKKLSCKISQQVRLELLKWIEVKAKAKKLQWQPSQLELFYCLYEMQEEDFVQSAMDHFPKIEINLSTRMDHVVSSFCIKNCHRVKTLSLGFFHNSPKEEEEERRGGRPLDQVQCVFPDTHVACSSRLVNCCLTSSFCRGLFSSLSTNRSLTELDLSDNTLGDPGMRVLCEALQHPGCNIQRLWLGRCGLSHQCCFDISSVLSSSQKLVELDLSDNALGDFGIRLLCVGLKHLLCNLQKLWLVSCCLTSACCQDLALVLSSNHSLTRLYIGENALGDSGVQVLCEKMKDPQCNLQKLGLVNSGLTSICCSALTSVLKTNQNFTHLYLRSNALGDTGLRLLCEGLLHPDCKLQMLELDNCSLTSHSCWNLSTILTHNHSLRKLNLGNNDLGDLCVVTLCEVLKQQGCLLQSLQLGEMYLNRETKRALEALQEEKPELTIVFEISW
Just the number, please; pIC50 means minus log10 of the concentration in mol/L.

Cc1cc(/C=C/C(=O)c2ccc(C(=O)N[C@@H](Cc3ccccc3)C(=O)O)cc2)cc(C)c1O ... 5.47
CSc1ccc(C(=O)/C=C/c2cc(O)cc(O)c2)cc1 ... 5.80
COC(=O)CNC(=O)c1ccc(C(=O)/C=C/c2cc(C)c(O)c(C)c2)cc1 ... 5.97

### Prompt Complete the entry with pIC50 for CNC(=O)CNC(=O)c1ccc(C(=O)/C=C/c2cc(C)c(O)c(C)c2)cc1
### Response 5.52

### Prompt Specify pIC50 for CCN(CC)C(=S)SCCC(=O)Nc1ccc(C(=O)/C=C/c2cc(C)c(O)c(C)c2)cc1 and stop.
### Response 5.42

----------
molecular target: NACHT, LRR and PYD domains-containing protein 3 (Mus musculus); experiment: Inhibition of NLRP3 inflammasome activation in mouse J774.A1 cells assessed as reduction in LPS-stimulated IL-1beta level pretreated for 1 hr followed by nigericin treatment for 1 hr by ELISA
reported.endpoint: IC50 (µM)
Number in µM, nothing else.

Here is how some molecules turned out for IC50.
COC(=O)[C@H](Cc1ccccc1)NC(=O)c1ccc(C(=O)/C=C/c2cc(C)c(O)c(C)c2)cc1 ... 1.09
CCOC(=O)c1ccc(C(=O)/C=C/c2cc(C)c(O)c(C)c2)cc1 ... 8.36
CSc1ccc(C(=O)/C=C/c2cc(C)c(O)c(C)c2)cc1 ... 3.67
COc1ccc(C(=O)/C=C/c2cc(C)c(O)c(C)c2)cc1 ... 14.4
CCNC(=O)CNC(=O)c1ccc(C(=O)/C=C/c2cc(C)c(O)c(C)c2)cc1 ... 3.96

### Prompt State its IC50: Cc1cc(/C=C/C(=O)c2ccc(C(=O)N[C@@H](Cc3ccccc3)C(=O)N[C@@H](CC(C)C)B(O)O)cc2)cc(C)c1O
### Response 0.13

### Prompt Read off the recorded IC50 for CCOC(=O)CSc1ccc(C(=O)/C=C/c2cc(C)c(O)c(C)c2)cc1
### Response 4.93

### Prompt Check the records and state IC50 for CCN(CC)C(=S)Sc1ccc(C(=O)/C=C/c2cc(C)c(O)c(C)c2)cc1
### Response 27.1
